Tested on: Dengue serotype 2 New Guinea C (NGC) strain
assay_comment: DENV-2 Huh-7 EC50 (qPCR in Huh7 cells)
Format: cell-based
measurement_conditions: Dengue virus, Huh-7; Table 5 comparative activity, 2',3'-OH vs -OC(O)iPr; read-out: DENV Huh7 EC50
Listed next: entries and their corresponding EC50.
measured_endpoint: EC50 (µM)

# compound, measured_endpoint, endpoint_result
measured = [
    ("COC(=O)[C@H](C)N[P@](=O)(OC[C@@]1(C#N)O[C@@H](c2ccc3c(N)ncnn23)[C@H](O)[C@@H]1O)Oc1ccccc1 [Example 52]", "EC50", 5.48),
    ("CCOC(=O)[C@H](C)N[P@](=O)(OC[C@@]1(C#N)O[C@@H](c2ccc3c(N)ncnn23)[C@H](O)[C@@H]1O)Oc1ccccc1 [Example 29]", "EC50", 1.88),
]

Every entry's value here was drawn from patent US12264173B2.
